Entries and their NADPH fluorescence slope
- targetDesc: Voltage-gated potassium channel subunit beta-2 (Rattus norvegicus) (UniProt P62483)
- Sequence (P62483 whole entry, looked up): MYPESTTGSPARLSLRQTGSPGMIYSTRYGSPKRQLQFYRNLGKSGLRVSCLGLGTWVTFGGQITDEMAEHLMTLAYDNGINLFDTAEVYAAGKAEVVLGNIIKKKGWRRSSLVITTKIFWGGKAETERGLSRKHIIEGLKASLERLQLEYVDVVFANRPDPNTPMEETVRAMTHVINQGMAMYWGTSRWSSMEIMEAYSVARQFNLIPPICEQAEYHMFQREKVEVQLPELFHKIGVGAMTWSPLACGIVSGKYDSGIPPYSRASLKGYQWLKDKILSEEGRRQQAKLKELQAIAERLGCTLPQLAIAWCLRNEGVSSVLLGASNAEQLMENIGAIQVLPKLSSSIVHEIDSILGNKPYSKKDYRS
- measurementProtocol: enhancers of rat Kvbeta2 NADPH turnover – biochemical, NADPH fluorescence, primary screen (AID 623);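 further: fluorescence intensity change per second fitted from 20 to 320 s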
- conditionsUsed: Recombinant KvBeta, NADPH fluorescence decrease slope, 10 min; at 10 µM; stronger effect = lower value
Answer with a bare number; do not write a unit.

Below, each entry is followed by its recorded NADPH fluorescence slope result.
COc1ccccc1Nc1nc(N)nc(CN2CCN(c3ccccc3F)CC2)n1	-2.2e-05
O=C(CS(=O)(=O)Cc1ccccc1)Nc1nc2ccccc2s1	-3.1e-05
Cc1noc(C)c1C(=O)Nc1sc(C)c(C)c1C#N	-2.4e-06

Value lookup for NADPH fluorescence slope; key = `Cc1cccc(Nc2ccccc2C(=O)O)c1C`
-5.8e-05

Next compound: `COc1ccccc1CNC(=O)C1CCN(S(=O)(=O)N2CCCCC2)CC1`
-3.4e-05

Next compound: `COc1ccccc1NS(=O)(=O)c1ccc(NC(=O)c2nc3ncccn3n2)cc1`
-7.6e-05

Next compound: `Cc1ccc(S(=O)(=O)NCCNC(=O)c2ccccc2)cc1`
-4.2e-05

Next compound: `CCC(=O)O[C@]1(C(=O)CCl)[C@@H](C)C[C@H]2[C@@H]3CCC4=CC(=O)C=C[C@]4(C)[C@@]3(F)[C@@H](O)C[C@@]21C`
-3.3e-05

Next compound: `O=C1NCCCc2c1no[n+]2[O-]`
-6.4e-06

Next compound: `Cc1ccc(S(=O)(=O)N[C@@H](C)C(=O)N2CCC(C(=O)N3CCC[C@H]3C(=O)O)CC2)cc1`
7.4e-05

Next compound: `O=c1c2c(nc3nc(CCc4ccccc4)[nH]n13)CCC2`
-1.7e-05

Next compound: CC1Cc2cc(/C(O)=C3/C(=O)C(=O)N(CCN4CCOCC4)C3c3cccc(O)c3)ccc2O1 (stereo not drawn)
-8.9e-05

Next compound: `Cc1cnn(C(=S)NCc2ccco2)c1`
-3.2e-05
